Assay: Chemical stability at pH 6.6 after 20 hrs
Format: physicochemical
Details: buffer, read-out: Stability
outcomeMeasure: remaining at 20 h (%)
Provide the reading as a plain figure in %.

// returns reported remaining at 20 h for input `O=C(OCOP(=O)(CCN1CCCNc2c1c(=O)c2=O)OCOC(=O)c1ccccc1)c1ccccc1`
89.4

====

Assay: Chemical stability in simulated gastric fluid after 8 hrs
Type: physicochemical
Conditions: read-out: Stability
outcomeMeasure: remaining at 8 h (%)
Provide the reading as a plain figure in %.

// returns reported remaining at 8 h for input `O=C(OCOP(=O)(CCN1CCCNc2c1c(=O)c2=O)OCOC(=O)c1ccccc1)c1ccccc1`
99.3

====

Assay: AUC (0 to 4 hrs) in Sprague-Dawley rat at 30 mg/kg, po
Format: ADME, organism-based
Parameters: time < 4 hr, dose 30 mg/kg, route oral
Conditions: plasma
outcomeMeasure: AUC(0-t) at 4 h

// returns reported AUC(0-t) at 4 h for input O=c1c2c(c1=O)N(CCP(=O)(O)O)CCCN2 [PERZINFOTEL]
342 ng·h/mL

====

Test: Chemical stability at pH 7.4 after 20 hrs
Type: physicochemical
Conditions: buffer, read-out: Stability
outcomeMeasure: remaining at 20 h (%)
Provide the reading as a plain figure in %.

// returns reported remaining at 20 h for input `O=C(OCOP(=O)(CCN1CCCNc2c1c(=O)c2=O)OCOC(=O)c1ccccc1)c1ccccc1`
62.2

====

Experiment: AUC (0 to last) in Sprague-Dawley rat at 30 mg/kg, po
Details: plasma
outcomeMeasure: AUC(0-last) (ng·h/mL)
Provide the reading as a plain figure in ng·h/mL.

// returns reported AUC(0-last) for input `O=c1c2c(c1=O)N(CCP(=O)(O)O)CCCN2`
342

====

Assay: Chemical stability in simulated intestinal bile fluid after 24 hrs
Assay type: physicochemical
Conditions: read-out: Stability
outcomeMeasure: remaining at 24 h (%)
Provide the reading as a plain figure in %.

// returns reported remaining at 24 h for input `O=C(OCOP(=O)(CCN1CCCNc2c1c(=O)c2=O)OCOC(=O)c1ccccc1)c1ccccc1`
98.1

====

Assay: Chemical stability at pH 6.6 after 4 hrs
Format: physicochemical
Settings: buffer, read-out: Stability
outcomeMeasure: remaining at 4 h (%)
Provide the reading as a plain figure in %.

Here are 2 molecules together with their reported answers.
{"columns": ["smilesInput", "outcomeMeasure", "observedMeasurement"],
 "data": [
  ["CC(C)OC(=O)OCOP(=O)(CCN1CCCNc2c1c(=O)c2=O)OCOC(=O)OC(C)C", "remaining at 4 h", 97.7],
  ["O=C(OCOP(=O)(CCN1CCCNc2c1c(=O)c2=O)OCOC(=O)C1CCCCC1)C1CCCCC1", "remaining at 4 h", 95]
]}

Consider now this further molecule.
// returns reported remaining at 4 h for input `O=C(OCOP(=O)(CCN1CCCNc2c1c(=O)c2=O)OCOC(=O)c1ccccc1)c1ccccc1`
98.1

====

Assay: Half life in Sprague-Dawley rat at 30 mg/kg, po
Type: ADME, organism-based
Set-up: dose 30 mg/kg, route oral
Details: in vivo
outcomeMeasure: half-life (min)
Provide the reading as a plain figure in min.

// returns reported half-life for input O=c1c2c(c1=O)N(CCP(=O)(O)O)CCCN2 [PERZINFOTEL]
78

Where these numbers come from: ChEMBL document CHEMBL1143386
